Cited source: patent US12122779B2

# methodSummary: Rodent pharmacokinetic study
# Type: in vivo, Male Wistar rats
# cond: male, Wistar, plasma; rat, oral 3 mg/kg vs intravenous 1 mg/kg; read-out: F (%) Bioavailability
observable: bioavailability (%)
Give bare numbers, in %.

These recorded examples may help you get a feel for the data.
> print(dat)
                                   molecule       observable  quantitativeresult
1  Cc1cncc(-c2ccc(Cc3cc(C(=O)N[C@H]4CCCC[C@@H]4O)nn4cccc34)cc2)c1 (stereo in doubt)  bioavailability                  64
2  Cn1cc(-c2ccc(Cc3cc(C(=O)NCC4(O)CCCCC4)nn4cccc34)cc2)cn1  bioavailability                   5

Hi, could you look up bioavailability for each item in my list?
1. O=C(NC1CCOCC1)c1cc(Cc2ccc(Cl)cc2)c2cccn2n1
2. O=C(N[C@H]1CCCC[C@@H]1O)c1cc(Cc2ccc(-c3ccncc3)cc2)c2cccn2n1 (stereo in doubt)
3. Cn1cc(-c2ccc(Cc3cc(C(=O)N[C@H]4CCOC[C@@H]4O)nn4cccc34)cc2)cn1 (stereo in doubt)
4. CC(C)(O)CNC(=O)c1cc(Cc2ccc(-c3cccnc3)cc2)c2cccn2n1
5. O=C(NC1CCOCC1)c1cc(Cc2ccc(-c3ccncc3)cc2)c2cccn2n1

Return:
1: 31; 2: 49; 3: 60; 4: 88; 5: 114

###

Kindly supply the reported half-life values for the records listed here.
# methodSummary: Rodent pharmacokinetic study
# Type: in vivo, Male Wistar rats
# cond: male, Wistar, plasma; rat, oral (gavage), 3 mg/kg
Answers are plain numbers, in h.

> print(dat)
                                   molecule  quantitativeresult
1  Cn1cc(-c2ccc(Cc3cc(C(=O)NCC4(O)CCCCC4)nn4cccc34)cc2)cn1                 1.9

Hi, could you look up half-life for each item in my list?
1. O=C(N[C@H]1CCCC[C@@H]1O)c1cc(Cc2ccc(-c3ccncc3)cc2)c2cccn2n1 (stereo in doubt)
2. CC(C)(O)CNC(=O)c1cc(Cc2ccc(-c3cccnc3)cc2)c2cccn2n1
3. Cn1cc(-c2ccc(Cc3cc(C(=O)NCC(C)(C)O)nn4cccc34)cc2)cn1
4. Cn1cc(-c2ccc(Cc3cc(C(=O)N[C@H]4CCOC[C@@H]4O)nn4cccc34)cc2)cn1 (stereo in doubt)
5. O=C(N[C@H]1CCCC[C@@H]1O)c1cc(Cc2ccc(-c3cccnc3)cc2)c2cccn2n1 (stereo in doubt)
6. O=C(NC1CCOCC1)c1cc(Cc2ccc(Cl)cc2)c2cccn2n1

Return:
1.06
2.2
1
3.74
1.77
7.9

###

# methodSummary: Rodent pharmacokinetic study
# Assay type: in vivo, Male Wistar rats
# cond: male, Wistar, plasma; rat, intravenous (bolus), 1 mg/kg
observable: clearance (mL/min/kg)
Numbers only, in mL/min/kg.

These recorded examples may help you get a feel for the data.
> print(dat)
                                   compound  quantitativeresult
1  Cn1cc(-c2ccc(Cc3cc(C(=O)NCC(C)(C)O)nn4cccc34)cc2)cn1                  17
2  O=C(N[C@H]1CCCC[C@@H]1O)c1cc(Cc2ccc(-c3ccncc3)cc2)c2cccn2n1 (stereo in doubt)                  24

Enquiry: Output clearance of "O=C(NC1CCOCC1)c1cc(Cc2ccc(-c3ccncc3)cc2)c2cccn2n1"
Return: 30.3
